Target: Prostaglandin G/H synthase 2 (Mus musculus)
Sequence (Q05769 whole entry): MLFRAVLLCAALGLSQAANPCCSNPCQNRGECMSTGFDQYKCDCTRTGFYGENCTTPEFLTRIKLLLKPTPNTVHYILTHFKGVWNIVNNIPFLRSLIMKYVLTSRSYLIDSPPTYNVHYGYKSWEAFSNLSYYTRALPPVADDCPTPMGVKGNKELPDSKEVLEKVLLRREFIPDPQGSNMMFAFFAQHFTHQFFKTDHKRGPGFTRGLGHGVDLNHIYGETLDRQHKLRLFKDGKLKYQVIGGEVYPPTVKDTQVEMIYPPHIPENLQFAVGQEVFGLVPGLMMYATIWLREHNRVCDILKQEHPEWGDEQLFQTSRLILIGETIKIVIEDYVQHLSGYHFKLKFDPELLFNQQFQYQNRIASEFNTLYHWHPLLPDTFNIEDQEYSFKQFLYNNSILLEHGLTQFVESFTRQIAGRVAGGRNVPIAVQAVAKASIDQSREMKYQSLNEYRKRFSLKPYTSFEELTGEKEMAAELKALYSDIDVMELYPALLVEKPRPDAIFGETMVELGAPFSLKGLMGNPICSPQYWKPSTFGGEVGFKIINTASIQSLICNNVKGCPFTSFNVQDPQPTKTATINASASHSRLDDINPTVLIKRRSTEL
Assay: Inhibition of Escherichia coli lipopolysaccharide-induced COX2 activity in mouse J774 cells assessed as decrease in PGE2 levels after 24 hrs by RIA
ASSAY ENDPOINT: IC50 (nM)
Numbers only; they are read as nM.

Query block: Specify IC50 for Cc1c(CCOCCCO)cc(-c2ccc(S(C)(=O)=O)cc2)n1-c1cccc(F)c1 and stop.
Result block: 240

Query block: Specify IC50 for Cc1c(CCOCCCO[N+](=O)[O-])cc(-c2ccc(S(C)(=O)=O)cc2)n1-c1cccc(F)c1 and stop.
Result block: 23

Query block: Specify IC50 for Cc1c(CCOCCCO)cc(-c2ccc(S(C)(=O)=O)cc2)n1-c1ccccc1 and stop.
Result block: 8990

Query block: Specify IC50 for Cc1c(CCOCCO[N+](=O)[O-])cc(-c2ccc(S(C)(=O)=O)cc2)n1-c1cccc(F)c1 and stop.
Result block: 27

====

Test system: Rattus norvegicus
Test: Antiinflammatory activity in Sprague-Dawley/Wistar rat assessed as decrease in carrageenan-induced paw edema at 20 mg/kg, po administered 3 hrs 30 mins after carrageenan-challenge measured after 60 mins (reference value: 2.48 +/- 0.06 mL)
Format: functional
Mark Satisfied for reported Activity of 2 mL or greater; mark Not satisfied for anything smaller.

Query block: Dear colleague, could you confirm whether Cc1c(CCOCCO[N+](=O)[O-])cc(-c2ccc(S(C)(=O)=O)cc2)n1-c1ccccc1 has Activity at or above 2 mL?
Result block: Not satisfied

Query block: Dear colleague, could you confirm whether Cc1c(CCOCCO)cc(-c2ccc(S(C)(=O)=O)cc2)n1-c1ccccc1 has Activity at or above 2 mL?
Result block: Not satisfied

Query block: Dear colleague, could you confirm whether Cc1c(CCOCCO)cc(-c2ccc(S(C)(=O)=O)cc2)n1-c1cccc(F)c1 has Activity at or above 2 mL?
Result block: Satisfied

Query block: Dear colleague, could you confirm whether Cc1c(CCOCCCO)cc(-c2ccc(S(C)(=O)=O)cc2)n1-c1ccccc1 has Activity at or above 2 mL?
Result block: Not satisfied

Query block: Dear colleague, could you confirm whether Cc1c(CCOCCO)cc(-c2ccc(S(C)(=O)=O)cc2)n1-c1ccc(F)c(F)c1 has Activity at or above 2 mL?
Result block: Satisfied

Query block: Dear colleague, could you confirm whether Cc1c(CCOCCO[N+](=O)[O-])cc(-c2ccc(S(C)(=O)=O)cc2)n1-c1ccc(F)cc1 has Activity at or above 2 mL?
Result block: Not satisfied

Query block: Dear colleague, could you confirm whether Cc1c(CCOCCCO[N+](=O)[O-])cc(-c2ccc(S(C)(=O)=O)cc2)n1-c1ccccc1 has Activity at or above 2 mL?
Result block: Not satisfied

Query block: Dear colleague, could you confirm whether Cc1c(CCOCCO[N+](=O)[O-])cc(-c2ccc(S(C)(=O)=O)cc2)n1-c1ccc(F)c(F)c1 has Activity at or above 2 mL?
Result block: Satisfied

Query block: Dear colleague, could you confirm whether Cc1c(CCOCCO[N+](=O)[O-])cc(-c2ccc(S(C)(=O)=O)cc2)n1-c1cccc(F)c1 has Activity at or above 2 mL?
Result block: Satisfied

====

Molecular target: Prostaglandin G/H synthase 2 (Homo sapiens, UniProt P35354)
Sequence (P35354 whole entry): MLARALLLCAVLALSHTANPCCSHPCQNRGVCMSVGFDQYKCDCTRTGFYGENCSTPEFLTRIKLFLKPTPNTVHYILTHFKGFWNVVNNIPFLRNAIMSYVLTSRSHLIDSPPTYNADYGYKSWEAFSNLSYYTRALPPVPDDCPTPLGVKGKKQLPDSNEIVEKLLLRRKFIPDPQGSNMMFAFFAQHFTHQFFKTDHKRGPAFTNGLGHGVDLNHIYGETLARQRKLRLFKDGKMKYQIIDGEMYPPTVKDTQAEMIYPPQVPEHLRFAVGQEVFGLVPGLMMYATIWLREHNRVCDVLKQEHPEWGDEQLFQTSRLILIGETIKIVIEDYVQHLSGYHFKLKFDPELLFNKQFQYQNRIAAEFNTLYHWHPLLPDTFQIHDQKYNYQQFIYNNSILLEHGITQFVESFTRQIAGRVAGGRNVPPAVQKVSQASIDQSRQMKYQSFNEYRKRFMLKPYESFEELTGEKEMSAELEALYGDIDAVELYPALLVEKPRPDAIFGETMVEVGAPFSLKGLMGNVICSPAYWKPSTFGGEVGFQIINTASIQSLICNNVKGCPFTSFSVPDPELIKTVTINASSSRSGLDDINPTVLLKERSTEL
Assay: Inhibition of COX2 in human whole blood assessed as reduction in LPS-induced PGE2 generation pre-treated prior to LPS-challenge
ASSAY ENDPOINT: pIC50
// pIC50: -log10(molar conc.)

Query block: Report measured pIC50 on Prostaglandin G/H synthase 2 (Homo sapiens, UniProt P35354); entry: Cc1c(CCOCCO[N+](=O)[O-])cc(-c2ccc(S(C)(=O)=O)cc2)n1-c1ccc(F)cc1
Result block: 6.19
